# target: SNAP25 Peptide 4 (PEP4, BoNT/A cleavage site region) (Homo sapiens, UniProt P60880 SEQ:1-24)
# Sequence (P60880 174-197): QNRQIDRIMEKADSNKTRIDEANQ
# assay summary: ELONA
# conditions used: label: biotin
metric name: binding signal (ELISA signal)
Quick reminder: number only, in ELISA signal, skip the unit.

[[record]]
binder = "PEP 4.22 (ssDNA) DNA: TTTTTAAGCCCACGGTGCTGTGGAAGCCACAGTACAATGGAGTGGGCCCATG"
units_text = "ELISA signal"
measured_number = 17

[[record]]
binder = "PEP 4.04 (ssDNA) DNA: TTTTTAAGCCCACGATCCTGTGCTTCGCACAGCTCGAGCTAGTGGGCCCATG"
units_text = "ELISA signal"
measured_number = 186


Okay, next one:
Query block: Consider the binder shown here: PEP 4.20 (ssDNA) DNA: TTTTTAAGCCCACACGTGTTCGGATCGCACAGTTATTGGCAGTCGTGCCATG What is its recorded binding signal?
Result block: 18
